Recorded measurements of viability, T/C, one per entry
Test system: NCI-H510 multicellular tumor spheroid growth, % test/control
Assay: Anticancer human tumor NCI-H510 cell line growth inhibition [Asc];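 also: spheroids exposed to agents for 7 days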;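 as to viability, T/C: 100% = DMSO vehicle control wells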
Conditions: second compound 0.01 µM; first compound 0.316 µM; stronger effect = lower value
Answer in %, number only, no unit symbol.

(Q) Report measured viability, T/C; entry is C=CC(=O)N1CCN(c2nc(=O)n(-c3c(C)ccnc3C(C)C)c3nc(-c4c(O)cccc4F)c(F)cc23)C(C)C1 (configuration not stated) + CNC(C)C(=O)NC1CN(S(=O)(=O)c2cccc(S(=O)(=O)N3CCC4CCC(C(=O)NC(c5ccccc5)c5ccccc5)N4C(=O)C(NC(=O)C(C)NC)C3)c2)CCC2CCC(C(=O)NC(c3ccccc3)c3ccccc3)N2C1=O
(A) 102

// next item, viability, T/C requested
(Q) Identify viability, T/C associated with the compound COc1c(OCCCN2CCOCC2)ccc2c3n(c(=NC(=O)c4cnc(N)nc4)nc12)CCN3 + CNC(C)C(=O)NC1CN(S(=O)(=O)c2cccc(S(=O)(=O)N3CCC4CCC(C(=O)NC(c5ccccc5)c5ccccc5)N4C(=O)C(NC(=O)C(C)NC)C3)c2)CCC2CCC(C(=O)NC(c3ccccc3)c3ccccc3)N2C1=O
(A) 127

====

Tested on: NCI-H510 multicellular tumor spheroid growth, % test/control
Experiment: Anticancer human tumor NCI-H510 cell line growth inhibition [Asc];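 also: spheroids exposed to agents for 7 days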
Conditions: curve of first compound; second compound 0.949 µM
quantityName: pIC50
Scale note: pIC50 = -log10(concentration in M).

(Q) Annotate the molecule NC(=O)C(=Cn1cnc(-c2cc(C(F)(F)F)cc(C(F)(F)F)c2)n1)c1cncnc1 + CCN1C(C(=O)NC23CCC(C(=O)O)(CC2)CC3)C(c2cccc(Cl)c2F)C2(C(=O)Nc3cc(Cl)ccc32)C12CCCCC2 with its measured pIC50.
(A) 6.74

Lab note: next molecule to report on.
(Q) State, in one line, measured pIC50 of Cn1ncnc1[C@H]1c2n[nH]c(=O)c3cc(F)cc(c23)N[C@@H]1c1ccc(F)cc1 + CCN1C(C(=O)NC23CCC(C(=O)O)(CC2)CC3)C(c2cccc(Cl)c2F)C2(C(=O)Nc3cc(Cl)ccc32)C12CCCCC2
(A) 7.98

====

System: NCI-H510 multicellular tumor spheroid growth, % test/control
Test: Anticancer human tumor NCI-H510 cell line growth inhibition [Asc];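 also: spheroids exposed to agents for 7 days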;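 as to viability, T/C: 100% = DMSO vehicle control wells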
Details: second compound 3 µM; first compound 0.0316 µM; stronger effect = lower value
quantityName: viability, T/C (%)
Could you give me the number in %? Just the number is fine.

(Q) Consider the compound C=CC(=O)N1CCN(c2nc(=O)n(-c3c(C)ccnc3C(C)C)c3nc(-c4c(O)cccc4F)c(F)cc23)C(C)C1 (configuration not stated) + CCN1C(C(=O)NC23CCC(C(=O)O)(CC2)CC3)C(c2cccc(Cl)c2F)C2(C(=O)Nc3cc(Cl)ccc32)C12CCCCC2 . State its measured viability, T/C.
(A) 116

Continue with the compound presented below.
(Q) Hello, please tell me recorded viability, T/C for this one: C=C(F)C(=O)N1CCN(c2nc(OCC3CCCN3C)nc3c2CCN(c2cccc4cccc(Cl)c24)C3)CC1CC#N (configuration not stated) + CCN1C(C(=O)NC23CCC(C(=O)O)(CC2)CC3)C(c2cccc(Cl)c2F)C2(C(=O)Nc3cc(Cl)ccc32)C12CCCCC2
(A) 87.5
